target or test system: Human C3 (Complement tech cat #A113c) (human, UniProt P01024 23-1663)
Sequence (P01024 23-1663 limits assumed): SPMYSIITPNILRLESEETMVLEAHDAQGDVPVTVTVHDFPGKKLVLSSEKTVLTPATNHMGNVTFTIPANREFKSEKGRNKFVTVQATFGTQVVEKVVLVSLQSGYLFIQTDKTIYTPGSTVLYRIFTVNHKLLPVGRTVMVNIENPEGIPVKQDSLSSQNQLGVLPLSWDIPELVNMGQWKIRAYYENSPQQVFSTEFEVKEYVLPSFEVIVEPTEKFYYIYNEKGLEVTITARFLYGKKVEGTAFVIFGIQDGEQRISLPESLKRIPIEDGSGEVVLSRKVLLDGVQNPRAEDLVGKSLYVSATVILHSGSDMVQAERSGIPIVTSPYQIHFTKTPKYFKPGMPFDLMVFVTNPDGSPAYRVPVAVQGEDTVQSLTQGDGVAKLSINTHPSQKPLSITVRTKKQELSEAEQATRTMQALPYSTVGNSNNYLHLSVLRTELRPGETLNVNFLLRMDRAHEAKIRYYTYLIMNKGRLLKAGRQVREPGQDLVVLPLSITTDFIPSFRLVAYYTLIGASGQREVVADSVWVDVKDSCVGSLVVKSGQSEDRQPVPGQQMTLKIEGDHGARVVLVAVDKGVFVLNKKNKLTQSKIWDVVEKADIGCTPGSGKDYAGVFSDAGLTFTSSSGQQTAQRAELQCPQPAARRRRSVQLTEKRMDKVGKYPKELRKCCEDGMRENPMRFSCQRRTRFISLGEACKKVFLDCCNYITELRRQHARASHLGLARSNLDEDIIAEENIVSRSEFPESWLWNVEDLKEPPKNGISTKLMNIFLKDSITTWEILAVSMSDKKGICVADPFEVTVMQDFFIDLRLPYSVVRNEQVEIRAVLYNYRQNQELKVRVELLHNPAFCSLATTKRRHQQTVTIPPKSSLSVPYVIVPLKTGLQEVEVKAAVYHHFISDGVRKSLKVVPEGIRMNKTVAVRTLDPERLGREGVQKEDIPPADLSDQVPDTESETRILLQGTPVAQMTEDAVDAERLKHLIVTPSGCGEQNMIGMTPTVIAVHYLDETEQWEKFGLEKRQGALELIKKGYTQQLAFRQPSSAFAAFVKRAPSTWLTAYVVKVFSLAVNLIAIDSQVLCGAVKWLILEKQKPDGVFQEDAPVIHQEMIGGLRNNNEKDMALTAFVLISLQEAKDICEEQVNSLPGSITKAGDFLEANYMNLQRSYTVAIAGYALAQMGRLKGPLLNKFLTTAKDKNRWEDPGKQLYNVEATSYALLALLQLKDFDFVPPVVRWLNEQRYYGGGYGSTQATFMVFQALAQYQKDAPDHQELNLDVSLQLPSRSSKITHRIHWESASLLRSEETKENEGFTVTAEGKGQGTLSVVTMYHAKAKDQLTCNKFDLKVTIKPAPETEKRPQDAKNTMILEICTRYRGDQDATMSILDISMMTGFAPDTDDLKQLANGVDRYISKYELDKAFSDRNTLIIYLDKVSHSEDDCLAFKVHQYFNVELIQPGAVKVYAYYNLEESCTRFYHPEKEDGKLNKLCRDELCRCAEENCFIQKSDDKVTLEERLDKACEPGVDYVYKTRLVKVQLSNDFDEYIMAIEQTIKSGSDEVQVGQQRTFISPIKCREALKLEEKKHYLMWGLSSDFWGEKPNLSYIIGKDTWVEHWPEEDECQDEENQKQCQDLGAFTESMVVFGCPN
assay summary: cell-based or functional assay
Starred links: 1 amine or outer side, 2 acyl side, 3 side chain; linkers in the order of their positions; H or OH if unused. Positions of bridges follow the written chain, without caps; N, C: chain ends. Non-standard residues stand in square brackets, D forms with d. Groups on a side chain read outwards from the residue. Trp(1-Me) = Cn1cc(C[C@H](N)C(=O)O)c2ccccc21; γGlu = O=C(O)[C@H](CCC(=O)[*:2])N[*:1]
Assignment: determine reported inhibition of hemolysis IC50 for the given binders.

Value lookup for inhibition of hemolysis IC50; key = Ac-ICIWQDWGDHRCT-NH2 (disulfide 2-12; SMILES CC[C@H](C)[C@H](NC(C)=O)C(=O)N[C@H]1CSSC[C@@H](C(=O)N[C@H](C(N)=O)[C@@H](C)O)NC(=O)[C@H](CCCNC(=N)N)NC(=O)[C@H](Cc2c[nH]cn2)NC(=O)[C@H](CC(=O)O)NC(=O)CNC(=O)[C@H](Cc2c[nH]c3ccccc23)NC(=O)[C@H](CC(=O)O)NC(=O)[C@H](CCC(N)=O)NC(=O)[C@H](Cc2c[nH]c3ccccc23)NC(=O)[C@H]([C@@H](C)CC)NC1=O) [Compound 17] < 100 nM

Value lookup for inhibition of hemolysis IC50; key = Ac-SEFCI[Trp(1-Me)]QDWGEHRCTGAESK([γGlu-Gly-γGlu-15‑carboxy‑hexadecanoyl])-NH2 (disulfide 4-14) [Compound 135] < 100 nM

Values compiled from patent US11965039B2.
